Sourced from patent US20090318349

# assay_system: hGHQ40N, P01241
# Sequence (P01241 27-217 Q66N): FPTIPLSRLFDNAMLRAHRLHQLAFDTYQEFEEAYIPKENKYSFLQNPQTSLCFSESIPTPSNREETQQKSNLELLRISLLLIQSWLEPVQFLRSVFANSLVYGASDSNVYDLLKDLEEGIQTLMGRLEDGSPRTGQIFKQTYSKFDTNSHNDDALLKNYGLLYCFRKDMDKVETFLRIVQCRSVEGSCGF
observable: Activity towards hGHQ40N (RFU/sec/µg)

// known answers, use as guide
mature mTGase from Streptoverticillium ladakanum (protein) DSDERVTPPAEPLDRMPDPYRPSYGRAETIVNNYIRKWQQVYSHRDGRKQQMTEEQREWLSYGCVGVTWVNSGQYPTNRLAFAFFDEDKYKNELKNGRPRSGETRAEFEGRVAKDSFDEAKGFQRARDVASVMNKALENAHDEGAYLDNLKKELANGNDALRNEDARSPFYSALRNTPSFKDRNGGNHDPSKMKAVIYSKHFWSGQDRSGSSDKRKYGDPEAFRPDRGTGLVDMSRDRNIPRSPTSPGESFVNFDYGWFGAQTEADADKTVWTHGNHYHAPNGSLGAMHVYESKFRNWSDGYSDFDRGAYVVTFVPKSWNTAPDKVKQGWP : 3.55 RFU/sec/µg
AlaPro-mTGase from S. mobaraensis (protein) APDSDDRVTPPAEPLDRMPDPYRPSYGRAETVVNNYIRKWQQVYSHRDGRKQQMTEEQREWLSYGCVGVTWVNSGQYPTNRLAFASFDEDRFKNELKNGRPRSGETRAEFEGRVAKESFDEEKGFQRAREVASVMNRALENAHDESAYLDNLKKELANGNDALRNEDARSPFYSALRNTPSFKERNGGNHDPSRMKAVIYSKHFWSGQDRSSSADKRKYGDPDAFRPAPGTGLVDMSRDRNIPRSPTSPGEGFVNFDYGWFGAQTEADADKTVWTHGNHYHAPNGSLGAMHVYESKFRNWSEGYSDFDRGAYVITFIPKSWNTAPDKVKQGWP : 5.05 RFU/sec/µg

Then there is this protein:
According to the records, this protein Met-mTGase from S. mobaraensis (protein) MDSDDRVTPPAEPLDRMPDPYRPSYGRAETVVNNYIRKWQQVYSHRDGRKQQMTEEQREWLSYGCVGVTWVNSGQYPTNRLAFASFDEDRFKNELKNGRPRSGETRAEFEGRVAKESFDEEKGFQRAREVASVMNRALENAHDESAYLDNLKKELANGNDALRNEDARSPFYSALRNTPSFKERNGGNHDPSRMKAVIYSKHFWSGQDRSSSADKRKYGDPDAFRPAPGTGLVDMSRDRNIPRSPTSPGEGFVNFDYGWFGAQTEADADKTVWTHGNHYHAPNGSLGAMHVYESKFRNWSEGYSDFDRGAYVITFIPKSWNTAPDKVKQGWP displays Activity towards hGHQ40N (RFU/sec/µg) of 5.44 RFU/sec/µg
